Let's look at some binders and their measured EC50.
# TESTED_TARGET: T1, CD38 and CD138 co-expressed on cells (CD38+/CD138+ double positive cells) (UniProt P28907 1-300; P18827 23-310)
# T1 construct: whole, on cells; Two separate membrane proteins on the same cell, not a complex; also called RPMI8226; OPM2
# EXPERIMENT_SUMMARY: FACS cell binding titration on OPM2 cells (CD38+/CD138+), arithmetic mean fluorescence. The table prints no unit; the unit is taken from the x axis 'log conc in nm' (nanomolar).
ASSAY_METRIC: EC50 (nM)

>  <BINDER>
DOM 11-3-20/DOM 12-45-2 (bispecific antibody, V domains shown) V domain 1: DIQTTQSPSSLSASVGDRVTITCRASQNIDSRLSWYQQKPGKAPKLLIYRSSVLQSGVPSRFSGSGSGTDFTLTISSLQPEDFATYYCQQWDMFPLMFGQGTKVEIKR V domain 2: DIQMTQSPSSLSASVGDRVTITCRASQDIGGRLRWYQQKPGKAPKLLIYHGSRLDSGVPSRFSGSRSGADFTLTISSLQPEDFATYYCQQQWYRPYTFGQGTKVEIKR

>  <MEASUREMENT_UNIT>
nM

>  <OBS_VALUE>
11.9

$$$$
>  <BINDER>
DOM 11-3-15/DOM 12-45-2 (bispecific antibody, V domains shown) V domain 1: DIQMTQSPSSLSASVGDRVTITCRASQNIDSRLSWYQQKPGKAPKLLIYRASVLQSGVPSRFSGTGSGTDFTLTISSLQPEDFATYYCQQWDMFPLSFGQGTKVEIKR V domain 2: DIQMTQSPSSLSASVGDRVTITCRASQDIGGRLRWYQQKPGKAPKLLIYHGSRLDSGVPSRFSGSRSGADFTLTISSLQPEDFATYYCQQQWYRPYTFGQGTKVEIKR

>  <MEASUREMENT_UNIT>
nM

>  <OBS_VALUE>
16.7

$$$$
>  <BINDER>
DOM11-3/DOM12-45 anti-CD38/anti-CD138 dual specific ligand (bispecific antibody, In-line fusion of two dAbs, expressed in E. coli; also called DOM11-3/12-45) DIQMTQSPSSLSASVGDRVTITCRASQNIDSRLSWYQQKPGKAPKLLIYRTSVLQSGVPSRFSGSGSGTDFTLTISSLQPEDFATYYCQQWDMFPLTFGQGTKVEIKRSSGGGGSGGGGSGGGGSGGGGSGGGGSTDIQMTQSPSSLSASVGDRVTITCRASQDIGDRLRWYQQKPGKAPKLLIYHGSRLESGVPSRFSGSRSGTDFTLTISSLQPEDFATYYCQQQWFRPYTFGQGTKVEIKR

>  <MEASUREMENT_UNIT>
nM

>  <OBS_VALUE>
44.4

$$$$
>  <BINDER>
DOM 11-3-1/DOM 12-45-2 (bispecific antibody, V domains shown) V domain 1: DIQMTQSPSSLSASVGDRVTITCRASHNIDSRLSWYQQKPGKAPKLLIYRASVLQSGVPSRFRGSGSGTDFTLTISSLQPEDFATYYCQQWDMFPLSFGQGTKVEIKR V domain 2: DIQMTQSPSSLSASVGDRVTITCRASQDIGGRLRWYQQKPGKAPKLLIYHGSRLDSGVPSRFSGSRSGADFTLTISSLQPEDFATYYCQQQWYRPYTFGQGTKVEIKR

>  <MEASUREMENT_UNIT>
nM

>  <OBS_VALUE>
13.8

$$$$
>  <BINDER>
DOM 11-3-23/DOM 12-45-2 (bispecific antibody, V domains shown) V domain 1: DIQMTQSPSSLSASVGDRVTITCRASQNIDSRLSWYQQKPGKAPKLLIYRASVLQSGVPSRFSGSGSGTDFTLTISSLQPEDFATYYCQQWDMFPLAFGQGTRVEIKR V domain 2: DIQMTQSPSSLSASVGDRVTITCRASQDIGGRLRWYQQKPGKAPKLLIYHGSRLDSGVPSRFSGSRSGADFTLTISSLQPEDFATYYCQQQWYRPYTFGQGTKVEIKR

>  <MEASUREMENT_UNIT>
nM

>  <OBS_VALUE>
11

$$$$
